Tested on: HIV-1
Test: HIV-1 infection assay (antiviral potency, MT4-GFP reporter cells)
Type: cell-based
Conditions: Human immunodeficiency virus 1, NL43; MT4-GFP cells infected with H9IIIB or NL4-3 virus; 100% normal human serum; inhibition of reproductive ratio R0; read-out: VIKING IP (nM) with 100% NHS
The threshold is 50 nM. Values of IC50 beneath it are tagged y; values meeting or exceeding it are tagged n.

# count of solved cases: 3
>  <compound>
CC(C)OC(=O)OCOP(=O)(CCN1n2cc(C(=O)NCc3ccc(F)cc3F)c(=O)c(O)c2C(=O)N(C)[C@@]12CCOC2)OCOC(=O)OC(C)C

>  <assay-target>
HIV-1

>  <classification>
y

$$$$
>  <compound>
CCOP(=O)(CCN1C(=O)c2c(O)c(=O)c(C(=O)NCc3ccc(F)cc3F)cn2N(C)C12CCOC2)OCC (centres unmarked) [Compound 40]

>  <assay-target>
HIV-1

>  <classification>
n

$$$$
>  <compound>
CCOP(=O)(CCN1C(=O)c2c(O)c(=O)c(C(=O)NCc3ccc(F)cc3F)cn2N(C)C12CCOC2)OCC (single isomer, unassigned) [Compound 45]

>  <assay-target>
HIV-1

>  <classification>
n

$$$$

stdin: Identify whether the compound CC(C)OC(=O)OCOP(=O)(O)CCN1n2cc(C(=O)NCc3ccc(F)cc3F)c(=O)c(O)c2C(=O)N(C)[C@@]12CCOC2 records IC50 below 50 nM.
stdout: n

stdin: Identify whether the compound CN1C(=O)c2c(O)c(=O)c(C(=O)NCc3ccc(F)cc3F)cn2N(CCP(=O)(O)O)[C@]12CCOC2 (single isomer, unassigned) records IC50 below 50 nM.
stdout: n

stdin: Identify whether the compound CC(C)OC(=O)OCOP(=O)(O)CCN1n2cc(C(=O)NCc3ccc(F)cc3F)c(=O)c(O)c2C(=O)N(C)[C@]12CCOC2 records IC50 below 50 nM.
stdout: n

stdin: Identify whether the compound CC(C)OC(=O)OCOP(=O)(CCN1C(=O)c2c(O)c(=O)c(C(=O)NCc3ccc(F)cc3F)cn2N(C)C12CCOC2)OCOC(=O)OC(C)C (centres unmarked) [Compound 43] records IC50 below 50 nM.
stdout: y

stdin: Identify whether the compound CN1C(=O)c2c(O)c(=O)c(C(=O)NCc3ccc(F)cc3F)cn2N(CCP(=O)(O)O)[C@@]12CCOC2 (single isomer, unassigned) records IC50 below 50 nM.
stdout: n

stdin: Identify whether the compound CCCOP(=O)(CCN1n2cc(C(=O)NCc3ccc(F)cc3F)c(=O)c(O)c2C(=O)N(C)[C@]12CCOC2)OCC (single isomer, unassigned) records IC50 below 50 nM.
stdout: y

stdin: Identify whether the compound CC(C)OC(=O)OCOP(=O)(CCCN1C(=O)c2c(O)c(=O)c(C(=O)NCc3ccc(F)cc3F)cn2N(CCP(=O)(OCOC(=O)OC(C)C)OCOC(=O)OC(C)C)C12CCOC2)OCOC(=O)OC(C)C (racemic) records IC50 below 50 nM.
stdout: y

stdin: Identify whether the compound CN1n2cc(C(=O)NCc3ccc(F)cc3F)c(=O)c(O)c2C(=O)N(CCP(=O)(O)O)C12CCOC2 (single isomer, unassigned) [Compound 46] records IC50 below 50 nM.
stdout: n

stdin: Identify whether the compound CN1n2cc(C(=O)NCc3ccc(F)cc3F)c(=O)c(O)c2C(=O)N(CCP(=O)(O)O)C12CCOC2 (centres unmarked) [Compound 42] records IC50 below 50 nM.
stdout: n

stdin: Identify whether the compound CC(C)OC(=O)OCOP(=O)(CCN1C(=O)c2c(O)c(=O)c(C(=O)NCc3ccc(F)cc3F)cn2N(C)C12CCOC2)OCOC(=O)OC(C)C (single isomer, unassigned) [Compound 47] records IC50 below 50 nM.
stdout: n

stdin: Identify whether the compound CC(C)OC(=O)OCOP(=O)(CCN1n2cc(C(=O)NCc3ccc(F)cc3F)c(=O)c(O)c2C(=O)N(C)[C@]12CCOC2)OCOC(=O)OC(C)C records IC50 below 50 nM.
stdout: y

* * *

Test system: HIV-1
Assay: HIV-1 infection assay (antiviral potency, MT4-GFP reporter cells)
Type: cell-based
Details: Human immunodeficiency virus 1, NL43; MT4-GFP cells infected with H9IIIB or NL4-3 virus; serum free conditions (0% NHS); inhibition of reproductive ratio R0; read-out: VIKING IP (nM) with 0% NHS
The threshold is 2 nM. Values of IC50 beneath it are tagged 1; values meeting or exceeding it are tagged -1.

>  <molecule>
CN1C(=O)c2c(O)c(=O)c(C(=O)NCc3ccc(F)cc3F)cn2N(CCP(=O)(O)O)[C@@]12CCOC2 (single isomer, unassigned)

>  <classification>
-1

$$$$

stdin: Identify whether the molecule CN1C(=O)c2c(O)c(=O)c(C(=O)NCc3ccc(F)cc3F)cn2N(CCP(=O)(O)O)[C@]12CCOC2 (single isomer, unassigned) records IC50 below 2 nM.
stdout: -1

stdin: Identify whether the molecule CC(C)OC(=O)OCOP(=O)(CCN1n2cc(C(=O)NCc3ccc(F)cc3F)c(=O)c(O)c2C(=O)N(C)[C@@]12CCOC2)OCOC(=O)OC(C)C records IC50 below 2 nM.
stdout: 1

* * *

System: HIV-1
Experiment: HIV-1 infection assay (antiviral potency, MT4-GFP reporter cells)
Format: cell-based
Conditions: Human immunodeficiency virus 1, NL43; MT4-GFP cells infected with H9IIIB or NL4-3 virus; serum free conditions (0% NHS); inhibition of reproductive ratio R0; read-out: VIKING IP (nM) with 0% NHS
Description: HIV-1 replication was monitored using MT4-gag-GFP clone D3 (hereafter designate MT4-GFP), which are MT-4 cells modified to harbor a GFP reporter gene, the expression of which is dependent on the HIV-1 expressed proteins tat and rev. […] Infected cells were quantified at two time points, ˜48 h and ˜72 h post-infection, by counting the number of green cells in each well using an Acumen eX3 scanner. […]
The threshold is 2 nM. Values of IC50 beneath it are tagged Met; values meeting or exceeding it are tagged Not met.

# count of solved cases: 5
>  <compound>
CN1n2cc(C(=O)NCc3ccc(F)cc3F)c(=O)c(O)c2C(=O)N(CCP(=O)(O)O)C12CCOC2 (single isomer, unassigned) [Compound 46]

>  <classification>
Not met

$$$$
>  <compound>
CC(C)OC(=O)OCOP(=O)(CCN1C(=O)c2c(O)c(=O)c(C(=O)NCc3ccc(F)cc3F)cn2N(C)C12CCOC2)OCOC(=O)OC(C)C (centres unmarked) [Compound 43]

>  <classification>
Met

$$$$
>  <compound>
CC(C)OC(=O)OCOP(=O)(O)CCN1n2cc(C(=O)NCc3ccc(F)cc3F)c(=O)c(O)c2C(=O)N(C)[C@]12CCOC2 [Compound 14]

>  <classification>
Met

$$$$
>  <compound>
CN1n2cc(C(=O)NCc3ccc(F)cc3F)c(=O)c(O)c2C(=O)N(CCP(=O)(O)O)C12CCOC2 (centres unmarked) [Compound 42]

>  <classification>
Not met

$$$$
>  <compound>
CCOP(=O)(CCN1C(=O)c2c(O)c(=O)c(C(=O)NCc3ccc(F)cc3F)cn2N(C)C12CCOC2)OCC (single isomer, unassigned) [Compound 45]

>  <classification>
Not met

$$$$

stdin: Identify whether the compound CC(C)OC(=O)OCOP(=O)(CCCN1C(=O)c2c(O)c(=O)c(C(=O)NCc3ccc(F)cc3F)cn2N(CCP(=O)(OCOC(=O)OC(C)C)OCOC(=O)OC(C)C)C12CCOC2)OCOC(=O)OC(C)C (racemic) [Compound 49] records IC50 below 2 nM.
stdout: Met

stdin: Identify whether the compound CC(C)OC(=O)OCOP(=O)(O)CCN1n2cc(C(=O)NCc3ccc(F)cc3F)c(=O)c(O)c2C(=O)N(C)[C@@]12CCOC2 [Compound 12] records IC50 below 2 nM.
stdout: Met

* * *

System: HIV-1
Assay: HIV-1 infection assay (antiviral potency, MT4-GFP reporter cells)
Assay type: cell-based
Settings: Human immunodeficiency virus 1, NL43; MT4-GFP cells infected with H9IIIB or NL4-3 virus; serum free conditions (0% NHS); inhibition of reproductive ratio R0; read-out: VIKING IP (nM) with 0% NHS
reported-metric: IC50 (nM)
// note: answer is a bare numeric in nM

Please review the following examples before continuing.
>  <compound>
CCCOP(=O)(CCN1n2cc(C(=O)NCc3ccc(F)cc3F)c(=O)c(O)c2C(=O)N(C)[C@]12CCOC2)OCC (single isomer, unassigned) [Compound 6]

>  <IC50 [nM]>
2

$$$$
>  <compound>
CC(C)OC(=O)OCOP(=O)(CCN1n2cc(C(=O)NCc3ccc(F)cc3F)c(=O)c(O)c2C(=O)N(C)[C@]12CCOC2)OCOC(=O)OC(C)C [Compound 13]

>  <IC50 [nM]>
0.04

$$$$
>  <compound>
CC(C)OC(=O)OCOP(=O)(CCN1C(=O)c2c(O)c(=O)c(C(=O)NCc3ccc(F)cc3F)cn2N(C)C12CCOC2)OCOC(=O)OC(C)C (single isomer, unassigned) [Compound 47]

>  <IC50 [nM]>
2.9

$$$$

// moving on: another record for IC50
stdin: Can you share its IC50? I mean this compound: CCOP(=O)(CCN1C(=O)c2c(O)c(=O)c(C(=O)NCc3ccc(F)cc3F)cn2N(C)C12CCOC2)OCC (stereo not shown) [Compound 40]
stdout: 3.6
